protocol_text: gradient 5% acetonitrile 3 min, to 50% in 2 min, to 85% in 15 min, held 3 min, 100 µL/min
applied_conditions: column: Zorbax Extend-C18 2.1 x 50 mm; eluents: water / acetonitrile, 0.1% formic acid
Flag rule - RP-LC retention time less than 800 s flags Met; the remaining entries get Not met.

# molecule, label_class
data = [
    ("O=C(NCc1ccco1)C1CCCN(C(=O)NC2CC2)C1 (stereo not given)", "Met"),
    ("Cc1cccc2nnc(N3CCCC(C(=O)Nc4ccc(N5CCOCC5)cc4)C3)n12 (stereo not given)", "Met"),
    ("C/C=C1\\C2C=C(C)C[C@]1(N)c1ccc(=O)[nH]c1C2", "Met"),
    ("Cn1cc(C(=O)NC2CCCCCC2)c2nn(-c3ccccc3)c(=O)c-2c1", "Not met"),
    ("CCCN(Cc1ccc(OC)cc1)Cc1cc(=O)n2ccc(C)cc2n1", "Met"),
    ("COc1ccc2nc(C(=O)NCc3ccc(Br)cc3)cn2n1", "Not met"),
    ("O=C(NCCN1CCCC1)c1nc(Nc2ccc(F)cc2)c2ccccc2n1", "Met"),
    ("Cc1ncc2c(n1)C[C@@H]1CC[C@H]2N1C(=O)Cc1ccccc1", "Met"),
    ("CC(=O)c1ccc(N2CCN(C(=O)Cn3ccc4ccc(-c5nnc(C)o5)cc43)CC2)cc1", "Met"),
    ("Cc1ccc(-c2nc(C3CC(=O)N(c4ccc(F)cc4)C3)no2)cc1C (stereo not given)", "Not met"),
    ("Cc1sc(S(=O)(=O)N2CCSCC2)cc1NC(=O)c1ccc(C(C)(C)C)cc1", "Not met"),
    ("CC(=O)c1ccc(NC(=O)c2c[nH]c3ncccc23)cc1", "Met"),
    ("CC(=O)N1CCC(C2CCN(C(=O)C3CC=CC3)C2)CC1 (stereo not given)", "Met"),
    ("O=C(NC1CCCC1)C1CCc2sc(C(=O)N3CCCCCC3)cc2C1 (stereo not given)", "Not met"),
    ("CC(C)Cn1c(=O)c(C(=O)NCc2ccc(N3CCCCC3)cc2)nc2cccnc21", "Met"),
    ("CCCS(=O)(=O)NCc1ccc2c(c1)CCN2C(=O)c1ccc(Cl)cc1", "Not met"),
    ("O=c1c2nc(-c3ccc(F)cc3)cn2ccn1-c1ccc(F)c(Cl)c1", "Not met"),
    ("Cc1noc(C)c1-c1ccc(S(=O)(=O)N2CCc3ccccc32)cc1", "Not met"),
    ("CC(CNC(=O)c1cn(C)nc1S(=O)(=O)N1CCSCC1)c1ccccc1 (stereo not given)", "Not met"),
    ("O=C(NCc1csc(-c2ccccc2)n1)C1CCN(C(=O)Nc2ccccc2)CC1", "Met"),
    ("CN(C)S(=O)(=O)c1ccc2c(c1)N(CC(=O)NCCCN1CCCC1)C(=O)C1CCCCN21 (stereo not given)", "Met"),
    ("COC(=O)c1ccc(NS(=O)(=O)c2cccc(-c3nc(-c4ccc(C)cc4)no3)c2)cc1", "Not met"),
    ("CCOC(=O)c1nc(N2CCC(Cc3ccccc3)CC2)c2ccccc2n1", "Not met"),
    ("CCCCN(C)Cc1nc2nc(C)cc(N3CCOCC3)n2n1", "Met"),
    ("Cc1cc2c(cc1S(=O)(=O)N1CCCC1C(=O)N1CCN(c3ccccc3)CC1)OCC(=O)N2 (stereo not given)", "Met"),
    ("CCOc1cc(=O)n2c(c1C(=O)Nc1cc(F)ccc1F)CCCC2", "Met"),
    ("COc1ccc(-c2cc3nn(CC(=O)Nc4ccc(C)c(C)c4)c(=O)n3c(C)n2)cc1", "Not met"),
]
